Please provide measured IC50 for the entries that follow.
# Target of assay: FLT3-ITD (Homo sapiens)
# Construct: FLT3-ITD; Invitrogen #PV6190
# Experimental details: FLT3-ITD biochemical kinase assay (AlphaScreen)

Qu. # query: IC50 of entry COc1cnc2[nH]cc(-c3ccc4ncn(Cc5ccc(F)cc5)c4c3)c2c1 [P-110]
Ans. 0.0001 to 1 µM

Qu. # query: IC50 of entry c1nc2cc(-c3c[nH]c4ncc(-c5cnc(C6CC6)nc5)cc34)ccc2[nH]1 [P-027]
Ans. 0.0001 to 1 µM

Qu. # query: IC50 of entry COc1cc(-c2cnc3[nH]nc(-c4ccc5ncn(C(C)(C)C)c5c4)c3c2)ccn1 [P-272]
Ans. 0.0001 to 1 µM

Qu. # query: IC50 of entry COC(=O)c1cc(-c2cnc3[nH]cc(-c4ccc5ncsc5c4)c3n2)ccc1C [P-165]
Ans. 0.0001 to 1 µM

Qu. # query: IC50 of entry COc1cc(C(=O)Nc2cnc3[nH]cc(-c4ccc5ncn(C(C)(C)C)c5c4)c3c2)ccn1 [P-245]
Ans. 0.0001 to 1 µM

Qu. # query: IC50 of entry CN1CCN(c2ccc(-c3cnc4[nH]cc(-c5ccc6ncn(C(C)(C)C)c6c5)c4n3)cc2)CC1 [P-341]
Ans. 0.0001 to 1 µM

Qu. # query: IC50 of entry FC(F)(F)Cn1cc(-c2cnc3[nH]cc(-c4ccc5ncn(C6CCCNC6)c5c4)c3c2)cn1 (stereo not drawn) [P-275]
Ans. 0.0001 to 1 µM

Qu. # query: IC50 of entry CC(C)(C)n1cnc2ccc(-c3c[nH]c4ncc(-c5ccc(F)c(C#N)c5)nc34)cc21 [P-230]
Ans. 0.0001 to 1 µM

Qu. # query: IC50 of entry COc1cnc2[nH]cc(-c3ccc4[nH]cnc4c3)c2c1 [P-002]
Ans. 0.0001 to 1 µM

Qu. # query: IC50 of entry Nc1nc2cc(-c3c[nH]c4ncccc34)ccc2[nH]1 [P-010]
Ans. 1 to 10 µM

Qu. # query: IC50 of entry c1cnc2[nH]cc(-c3ccc4[nH]ncc4c3)c2c1 [P-001]
Ans. 1 to 10 µM

Qu. # query: IC50 of entry CC(C)(C)n1cnc2ccc(-c3c[nH]c4ncc(-c5ccc(N6CCCCC6)nc5)nc34)cc21 [P-347]
Ans. 0.0001 to 1 µM

Qu. # query: IC50 of entry COc1cc(-c2cnc3[nH]cc(-c4ccc5ncn(C)c5c4)c3n2)cc(C)n1 [P-180]
Ans. 0.0001 to 1 µM

Qu. # query: IC50 of entry CC1(COc2cnc3[nH]cc(-c4ccc5[nH]cnc5c4)c3c2)COC1 [P-008]
Ans. 0.0001 to 1 µM

Qu. # query: IC50 of entry O=S(=O)(C1CC1)N1CC=C(c2cnc3[nH]cc(-c4ccc5[nH]cnc5c4)c3c2)CC1 [P-031]
Ans. 0.0001 to 1 µM

Qu. # query: IC50 of entry Fc1cnc2[nH]cc(-c3ccc4nc[nH]c4c3)c2c1 [P-022]
Ans. 1 to 10 µM

Qu. # query: IC50 of entry CC(C)(C)n1cnc2ccc(-c3c[nH]c4ncc(-c5ccnc(C#N)c5)cc34)cc21 [P-291]
Ans. 0.0001 to 1 µM

Qu. # query: IC50 of entry COc1cnc2[nH]cc(-c3ccc4c(c3)ncn4C)c2c1 [P-102]
Ans. 10 to 200 µM

---

# Target of assay: BA/F3-FLT3-ITD + F691L cells (Homo sapiens, UniProt P36888, F691L, cells depend on it, form not given)
# Sequence (P36888 1-993 F691L): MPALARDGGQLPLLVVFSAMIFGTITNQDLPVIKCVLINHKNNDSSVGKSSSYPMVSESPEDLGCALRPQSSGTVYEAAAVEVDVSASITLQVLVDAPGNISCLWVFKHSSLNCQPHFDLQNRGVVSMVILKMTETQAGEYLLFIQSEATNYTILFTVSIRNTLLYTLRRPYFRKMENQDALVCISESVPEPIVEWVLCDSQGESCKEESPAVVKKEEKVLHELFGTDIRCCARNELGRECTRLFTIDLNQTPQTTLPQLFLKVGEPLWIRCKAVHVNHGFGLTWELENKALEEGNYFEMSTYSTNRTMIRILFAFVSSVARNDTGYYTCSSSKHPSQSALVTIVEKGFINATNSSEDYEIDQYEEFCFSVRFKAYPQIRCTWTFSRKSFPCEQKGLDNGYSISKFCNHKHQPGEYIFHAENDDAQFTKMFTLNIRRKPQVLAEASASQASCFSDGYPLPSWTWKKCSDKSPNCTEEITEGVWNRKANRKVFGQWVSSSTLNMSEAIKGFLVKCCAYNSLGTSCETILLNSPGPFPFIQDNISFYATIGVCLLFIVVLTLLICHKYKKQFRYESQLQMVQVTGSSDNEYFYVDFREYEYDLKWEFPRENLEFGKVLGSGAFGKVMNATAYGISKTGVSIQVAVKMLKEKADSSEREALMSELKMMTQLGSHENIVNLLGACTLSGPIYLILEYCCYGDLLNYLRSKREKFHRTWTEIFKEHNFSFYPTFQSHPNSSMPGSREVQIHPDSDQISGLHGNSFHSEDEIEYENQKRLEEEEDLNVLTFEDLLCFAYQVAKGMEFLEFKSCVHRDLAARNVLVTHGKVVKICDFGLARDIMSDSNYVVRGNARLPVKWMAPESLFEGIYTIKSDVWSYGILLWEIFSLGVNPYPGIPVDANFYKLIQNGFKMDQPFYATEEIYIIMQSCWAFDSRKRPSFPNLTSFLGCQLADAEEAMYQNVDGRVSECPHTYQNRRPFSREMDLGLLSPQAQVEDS
# Experimental details: BA/F3-FLT3-ITD + F691L cell proliferation assay (CellTiter-Glo)
# Format: cell-based, murine
# Measurement conditions: BaF3 FLT3 ITD/F691L cells; read-out: Cell Activity (IC50 μM) BaF3_FLT3_ITD/F691L
Please provide measured GI50 for the entries that follow.

Qu. # query: GI50 of entry `CC(C)(C)n1cnc2ccc(-c3c[nH]c4ncc(-c5ccc(N6CCCCC6)nc5)nc34)cc21`
Ans. 0.0001 to 1 µM

Qu. # query: GI50 of entry `C#Cc1cnc2[nH]cc(-c3ccc4ncn(C(C)(C)C)c4c3)c2c1`
Ans. 0.0001 to 1 µM

Qu. # query: GI50 of entry `CC(C)(C)n1cnc2ccc(-c3c[nH]c4ncc(-c5ccc(C#N)nc5)cc34)cc21`
Ans. 0.0001 to 1 µM

Qu. # query: GI50 of entry `CN1CCN(c2ccc(-c3cnc4[nH]cc(-c5ccc6ncn(C(C)(C)C)c6c5)c4n3)cn2)CC1`
Ans. 0.0001 to 1 µM

Qu. # query: GI50 of entry c1cc(N2CCOCC2)ncc1-c1cnc2[nH]cc(-c3ccc4ncn(C5CCCNC5)c4c3)c2c1 (stereo not drawn)
Ans. 0.0001 to 1 µM

Qu. # query: GI50 of entry `COc1cc(C(=O)Nc2cnc3[nH]cc(-c4ccc5ncn(C(C)(C)C)c5c4)c3c2)ccn1`
Ans. 0.0001 to 1 µM

Qu. # query: GI50 of entry `Cc1ncc(-c2cnc3[nH]cc(-c4ccc5ncn(C(C)(C)C)c5c4)c3n2)cn1`
Ans. 0.0001 to 1 µM

Qu. # query: GI50 of entry CC(C)S(=O)(=O)Nc1cccc(-c2cnc3[nH]cc(-c4ccc5ncn(C6CCCNC6)c5c4)c3c2)c1 (stereo not drawn)
Ans. 0.0001 to 1 µM

Qu. # query: GI50 of entry O=S1(=O)CCCCN1c1cc(-c2cnc3[nH]cc(-c4ccc5ncn(C6CCCNC6)c5c4)c3n2)ccn1 (stereo not drawn)
Ans. 0.0001 to 1 µM

Qu. # query: GI50 of entry `CC(C)(C)n1cnc2ccc(-c3c[nH]c4ncc(-c5ccc(N6CCOCC6)nc5)nc34)cc21`
Ans. 0.0001 to 1 µM

Qu. # query: GI50 of entry O=S(=O)(c1cccc(-c2cnc3[nH]cc(-c4ccc5ncn(C6CCCNC6)c5c4)c3c2)c1)N1CCCC1 (stereo not drawn)
Ans. 0.0001 to 1 µM

Qu. # query: GI50 of entry COc1ncc(-c2cnc3[nH]cc(-c4ccc5ncn(C6CCCNC6)c5c4)c3n2)cn1 (stereo not drawn)
Ans. 0.0001 to 1 µM

Qu. # query: GI50 of entry FC(F)(F)Oc1cccc(C#Cc2cnc3[nH]cc(-c4ccc5ncn(C6CCCNC6)c5c4)c3n2)c1 (stereo not drawn)
Ans. 1 to 10 µM

Qu. # query: GI50 of entry `CC(C)(C)n1cnc2ccc(-c3c[nH]c4ncc(-c5cnn(C(F)F)c5)nc34)cc21`
Ans. 0.0001 to 1 µM

Qu. # query: GI50 of entry `CCCS(=O)(=O)Nc1cccc(-c2cnc3[nH]cc(-c4ccc5ncn(C(C)(C)C)c5c4)c3c2)c1`
Ans. 0.0001 to 1 µM

Qu. # query: GI50 of entry `Cn1cnc2ccc(-c3c[nH]c4ncc(C(=O)Nc5cccc(F)c5)cc34)cc21`
Ans. 0.0001 to 1 µM

Qu. # query: GI50 of entry FC(F)n1cc(-c2cnc3[nH]cc(-c4ccc5ncn(C6CCCNC6)c5c4)c3c2)cn1 (stereo not drawn)
Ans. 0.0001 to 1 µM

Qu. # query: GI50 of entry `CC(C)(C)n1cnc2ccc(-c3c[nH]c4ncc(NC(=O)c5cccc(C#N)c5)cc34)cc21`
Ans. 0.0001 to 1 µM

Qu. # query: GI50 of entry c1cc(N2CCCCC2)ncc1-c1cnc2[nH]cc(-c3ccc4ncn(C5CCCNC5)c4c3)c2n1 (stereo not drawn)
Ans. 0.0001 to 1 µM

Qu. # query: GI50 of entry O=C(Nc1cccc(F)c1)c1cnc2[nH]cc(-c3ccc4ncn(C5CCCNC5)c4c3)c2c1 (stereo not drawn)
Ans. 0.0001 to 1 µM

Qu. # query: GI50 of entry O=S1(=O)CCCN1c1cccc(-c2cnc3[nH]cc(-c4ccc5ncn(C6CCCNC6)c5c4)c3n2)c1 (stereo not drawn)
Ans. 0.0001 to 1 µM

Qu. # query: GI50 of entry `CCN1CCN(c2ccc(-c3cnc4[nH]cc(-c5ccc6ncn(C(C)(C)C)c6c5)c4n3)cn2)CC1`
Ans. 0.0001 to 1 µM

Qu. # query: GI50 of entry `COc1cnc2[nH]cc(-c3ccc4ncn(-c5ccccc5)c4c3)c2c1`
Ans. 0.0001 to 1 µM

Qu. # query: GI50 of entry `COc1cnc2[nH]cc(-c3ccc4ncn(C5CCC5)c4c3)c2c1`
Ans. 0.0001 to 1 µM

Qu. # query: GI50 of entry `CC(C)(C)n1cnc2ccc(-c3c[nH]c4ncc(-c5cccc(N6CCCCC6)c5)nc34)cc21`
Ans. 0.0001 to 1 µM

Qu. # query: GI50 of entry `CC(C)(C)n1cnc2ccc(-c3c[nH]c4ncc(-c5cccc(N6CCOCC6)c5)nc34)cc21`
Ans. 0.0001 to 1 µM

Qu. # query: GI50 of entry c1cc(N2CCCCC2)ccc1-c1cnc2[nH]cc(-c3ccc4ncn(C5CCCNC5)c4c3)c2n1 (stereo not drawn)
Ans. 0.0001 to 1 µM

Qu. # query: GI50 of entry `COc1ncc(-c2cnc3[nH]cc(-c4ccc5ncn(C(C)(C)C)c5c4)c3c2)cn1`
Ans. 0.0001 to 1 µM

Qu. # query: GI50 of entry `COc1cc(-c2cnc3[nH]cc(-c4ccc5ncn(C(C)(C)C)c5c4)c3c2)c(OC)nn1`
Ans. 0.0001 to 1 µM

Qu. # query: GI50 of entry c1cc(-c2cnc3[nH]cc(-c4ccc5ncn(C6CCCNC6)c5c4)c3n2)cc(N2CCOCC2)c1 (stereo not drawn)
Ans. 0.0001 to 1 µM

Qu. # query: GI50 of entry c1cc(-c2cnc3[nH]cc(-c4ccc5ncn(C6CCCNC6)c5c4)c3n2)cc(N2CCCCC2)n1 (stereo not drawn)
Ans. 0.0001 to 1 µM

Qu. # query: GI50 of entry c1cc(-c2cnc3[nH]cc(-c4ccc5ncn(C6CCCNC6)c5c4)c3c2)cc(N2CCOCC2)n1 (stereo not drawn)
Ans. 0.0001 to 1 µM

Qu. # query: GI50 of entry `CC(C)(C)n1cnc2ccc(-c3c[nH]c4ncc(C(=O)Nc5cccc(C#N)c5)cc34)cc21`
Ans. 0.0001 to 1 µM
